Assignment: determine reported cytotoxicity at 10 µM for the given molecules.
experiment: Toxicity liver stage against HepG2, at 10uM; type: cell-based; design: test concentration 10 uM, cell line HepG2-A16-CD81EGFP; conditions: human, HepG2-A16-CD81EGFP cells; read-out: INHIBITION
One number for each entry, in %.

Past entries and their recorded results:
{"columns": ["molecule", "unitSymbol", "observed"],
 "data": [
  ["CCN(C1CCN(Cc2ncc(C(C)(C)C)o2)CC1)S(C)(=O)=O", "%", -4.15],
  ["COc1c(CNCCNC(=O)c2ccc(C)cc2)c(C)nn1C", "%", -3.39],
  ["Cc1ccc(S(=O)(=O)NC(C)(C)CN)c(F)c1", "%", -8.73]
]}

For each of the items listed, what is its cytotoxicity at 10 µM?
1. CC(C(=O)N1CCCN(Cc2cscn2)CC1)N1CCOCC1 (stereo not drawn)
2. COc1ccsc1C(=O)N1CCCC(n2nc(C)cc2C)C1 (stereo not drawn)
3. Cc1cnc(C(=O)N2CCN(C(=O)C(C)C)[C@@H]3CS(=O)(=O)C[C@@H]32)cn1
4. Cc1nc(C)n(C2CCCN(C(=O)CCc3ccncc3)C2)n1 (stereo not drawn)
5. CCc1nnc2n1CCN(CC(=O)Nc1cc(C)on1)C2
6. CCCC(=O)N(C)Cc1nc(N2CCCC2)ncc1-c1ccncc1
7. CC1CCCN(CCCNC(=O)c2ccc(N(C)S(C)(=O)=O)cc2Cl)C1 (stereo not drawn)
8. CCN(CC1CCOC1)C(=O)c1ccccc1NS(=O)(=O)CC (stereo not drawn)

## Result
[-11.4, -9.41, 7.91, -5.23, 5.18, 9.76, -2.28, -7.4]

// input: 2 molecules below; output: cytotoxicity at 10 µM for each
1. Cn1c(N2CCOCC2)nc2cc(C(=O)N3CCCOCC3)ccc21
2. COc1ccc(C2CNCCN2C(=O)c2cccc3cccnc23)cc1 (stereo not drawn)

## Result
1: -1.29; 2: -4.48

###

assay: Toxicity liver stage against HepG2, at 10uM; format: cell-based; design: test concentration 10 uM, cell line HepG2-A16-CD81EGFP; conditions: human, HepG2-A16-CD81EGFP cells; read-out: INHIBITION
recordedEndpoint: cytotoxicity at 10 µM (%)
One number for each entry, in %.

Guide cases for cytotoxicity at 10 µM, answers given:
{"columns": ["compound", "cytotoxicity at 10 µM / %"],
 "data": [
  ["O=C(c1ncn2c1CNS(=O)(=O)c1ccccc1-2)N1CCCCC1", 9.52],
  ["CCN(CC1CN(Cc2cccnc2)CCO1)c1cccnn1 (stereo not given)", -14],
  ["COc1ncccc1CN1C[C@H]2CCN(c3ccc(C)nn3)C[C@H]2C1", 4.59],
  ["Cc1cc(C)n(CC2CCCCN2C(=O)c2ccsc2)n1 (stereo not given)", -10.3]
]}

Consider the additional compound presented here.
## Task What does the data say about its cytotoxicity at 10 µM? Entry: Cc1nccn1-c1ccc(NS(=O)(=O)c2cnn(C)c2)cn1
## Result -6.38

###

test: Toxicity liver stage against HepG2, at 10uM; type: cell-based; parameters: test concentration 10 uM, cell line HepG2-A16-CD81EGFP; conditions: human, HepG2-A16-CD81EGFP cells; read-out: INHIBITION
recordedEndpoint: cytotoxicity at 10 µM
Record the result as number plus unit.

{"columns": ["molecule", "cytotoxicity at 10 µM"],
 "data": [
  ["CC(=O)N(Cc1ncc(C)o1)C1CCN(Cc2cnc(C)s2)C1 (stereo unspecified)", "5.42%"]
]}

// each molecule listed below needs its cytotoxicity at 10 µM
1. Cn1nc(C2CCCN(Cc3ccsc3)C2)c2nccnc21 (stereo unspecified)
2. N#CC1(C(=O)NCCCNc2ccc(C(F)(F)F)cn2)CCCC1
3. CC(=O)NCCC(=O)NCc1cc(Br)ccc1OC(F)F

## Result
1. -2.58%
2. -6.36%
3. -6.47%

For every listed record, write down its cytotoxicity at 10 µM.
1. CCc1n[nH]c(C2CN(CCCS(C)(=O)=O)CCO2)n1 (stereo unspecified)
2. CC(C)c1noc(CN2CCN(C(=O)c3cccnc3O)CC2)n1
3. CC(=O)N1CCC(c2nccnc2Nc2ncc(C)s2)CC1
4. CCn1nc(C)c2nc(C(C)C)nc(NCCCO)c21
5. CC(C)Cc1nc(CSCC(=O)N2CCC(C)CC2)no1

## Result
1. -3.48%
2. -9.86%
3. 10.1%
4. 6.48%
5. 2.25%
